# assay-target: T1, Midline T-box domain (MidTbx) (Drosophila melanogaster, UniProt Q8SYY8 171-393)
# T1 sequence: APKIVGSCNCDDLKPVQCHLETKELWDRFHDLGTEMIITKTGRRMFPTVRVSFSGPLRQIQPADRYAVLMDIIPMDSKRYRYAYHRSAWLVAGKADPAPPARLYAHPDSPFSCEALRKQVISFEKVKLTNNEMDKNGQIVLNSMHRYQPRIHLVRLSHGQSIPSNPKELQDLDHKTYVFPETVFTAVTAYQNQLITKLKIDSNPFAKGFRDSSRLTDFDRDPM
# test-protocol: EMSA; 20 mM HEPES pH 7.9, 100 mM KCl, 0.2 mM EDTA, 0.2 mM EGTA, 20% glycerol, 0.1% NP40, 0.5 mM DTT, 10 mg/ml BSA, 8 ng/ul poly(dI-dC); room temperature 1 h; 15 fmol
# conditions-used: protein: recombinant; tags: C-terminal 6xHis (pET-21a); label: 5' biotin (primer F); blunt
endpoint: binding result

Please indicate binding result recorded for clone 50 (dsDNA) DNA 1: CAGGTCAGTTCAGCGGATCCTGTCGAGGTGTGGCACTGTGAAGTTCGCGAGGAGGCGAATTCAGTGCAACTGCAGC DNA 2: GCTGCAGTTGCACTGAATTCGCCTCCTCGCGAACTTCACAGTGCCACACCTCGACAGGATCCGCTGAACTGACCTG
binds

Please indicate binding result recorded for clone 2 (dsDNA) DNA 1: GCTGCAGTTGCACTGAATTCGCCTCACCATCACACCAGCGAAGTGACAGTTCGACAGGATCCGCTGAACTGACCTG DNA 2: CAGGTCAGTTCAGCGGATCCTGTCGAACTGTCACTTCGCTGGTGTGATGGTGAGGCGAATTCAGTGCAACTGCAGC
binds

Please indicate binding result recorded for clone 57 (dsDNA) DNA 1: CAGGTCAGTTCAGCGGATCCTGTCGACATGGGAGGCTGTTACGGCGCGAACGAGGCGAATTCAGTGCAACTGCAGC DNA 2: GCTGCAGTTGCACTGAATTCGCCTCGTTCGCGCCGTAACAGCCTCCCATGTCGACAGGATCCGCTGAACTGACCTG
binds
